meta.source: PubChem BioAssay (NCI)

test system: OVCAR-5 ovarian; assay: NCI tumour cell line growth inhibition, 48 h
Where a SMILES comes first, the peptide text is derived from it. The star is where a group is joined. Ethyl(2-NMe3+) = C[N+](C)(C)CC*; Boc = CC(C)(C)OC(=O)*
MEASURED_PARAMETER: TGI

// compound CC(C)c1c(O)ccc2c1CCC1C(C)(C)CCCC21C (configuration not stated) , assay OVCAR-5 ovarian, TGI value: 28.1 µM

// compound `FC(F)(F)c1ccc(C#Cc2ccccc2C#Cc2ccccc2)cc1` , assay OVCAR-5 ovarian, TGI value: > 100 µM

// compound `C#C[C@]1(O)CC[C@H]2[C@@H]3CCC4=C/C(=N/NC(=O)c5cccc6cc7ccccc7nc56)CC[C@@H]4[C@H]3CC[C@@]21CC` , assay OVCAR-5 ovarian, TGI value: > 100 µM

// compound COC(=O)C(Cc1ccc(Oc2cc(CC(NC(=O)c3ccccc3)C(=O)OC)ccc2OC)cc1)NC(=O)c1ccccc1 (configuration not stated) , assay OVCAR-5 ovarian, TGI value: > 100 µM

// compound `CCN(CC)CCn1c2ccccc2c(=O)c2c(O)ccc(O)c21` , assay OVCAR-5 ovarian, TGI value: > 78.5 µM

// compound `CN(C)C=[N+]=[N-]` , assay OVCAR-5 ovarian, TGI value: > 100 µM

// compound `COC(=O)C1=C(C(=O)OC)SC(=C(Cl)C(=S)Nc2ccccc2O)S1` , assay OVCAR-5 ovarian, TGI value: 31.5 µM

// compound CC(NC(=O)C(Cc1ccc(OCC[N+](C)(C)C)cc1)NC(=O)OC(C)(C)C)C(=O)NC(Cc1ccccc1)C(=O)NCC(N)=O (configuration not stated) (Boc-Y(Ethyl(2-NMe3+))AFG-NH2; configuration not given here) , assay OVCAR-5 ovarian, TGI value: 59.5 µM

// compound `O=C(Nc1ccc2[nH]c(=S)sc2c1)Nc1ccccc1F` , assay OVCAR-5 ovarian, TGI value: > 100 µM

// compound CC(NCCC(=O)N(CCC(=O)N(CCC(=O)N(CCC(=O)N(CCC(=O)N(CCC(=O)N(CCC(=O)N(CCC(=O)N(CCC(=O)N(CCC(=O)O)[C@H](C)c1ccccc1)[C@H](C)c1ccccc1)[C@H](C)c1ccccc1)[C@H](C)c1ccccc1)[C@H](C)c1ccccc1)[C@H](C)c1ccccc1)[C@H](C)c1ccccc1)[C@H](C)c1ccccc1)[C@H](C)c1ccccc1)c1ccccc1 (some centres not stated) , assay OVCAR-5 ovarian, TGI value: > 75 µM

// compound `Cc1c(C(=O)CC(=O)C(=O)Nc2ccc(Cl)cc2)[n+](=O)c2ccccc2n1[O-]` , assay OVCAR-5 ovarian, TGI value: > 100 µM

// compound `O=P1(c2ccccc2)C(c2ccccc2)=CC=C1c1ccccc1` , assay OVCAR-5 ovarian, TGI value: > 100 µM

// compound `CC1(C)C/C(=N/O)c2c(nc3ccc4ccccc4c3c2-c2ccc(Cl)cc2)C1` , assay OVCAR-5 ovarian, TGI value: > 100 µM

// compound `N#Cc1cc(-c2nc3c(F)cccc3s2)ccc1N` , assay OVCAR-5 ovarian, TGI value: > 100 µM

// compound O=C1C2C=CC(C2)C(c2ccc(O)cc2)N1O (configuration not stated) , assay OVCAR-5 ovarian, TGI value: > 100 µM

// compound `CC(C)(CN1CCCCC1)C(=O)/C=C/c1ccc(Cl)cc1` , assay OVCAR-5 ovarian, TGI value: 23.5 µM

// compound `CC(=O)OCC(=O)[C@@]12OC(C)(C)O[C@@H]1C[C@H]1[C@@H]3CC=C4C[C@@H](O)CC[C@]4(C)[C@H]3CC[C@@]12C` , assay OVCAR-5 ovarian, TGI value: > 100 µM
